target_system: T1, human CD28 (human, UniProt P10747 19-220)
T1 construct: whole, on cells
measurement_description: flow cytometry, cells with human CD28; protein from CHO
quantity_measured: MFI (ΔWT) (fold vs WT)
Give the value in fold vs WT but do not write fold vs WT after it.

binder="ICOSL ECD with N52H/N57Y/Q100R/C198R (Table 18) (Fc fusion, not shown: a dimerising Fc or GST, Made in CHO cells; May be the same construct as m37) DTQEKEVRAMVGSDVELSCACPEGSRFDLNDVYVYWQTSESKTVVTYHIPQHSSLEYVDSRYRNRALMSPAGMLRGDFSLRLFNVTPQDEQKFHCLVLSRSLGFQEVLSVEVTLHVAANFSVPVVSAPHSPSQDELTFTCTSINGYPRPNVYWINKTDNSLLDQALQNDTVFLNMRGLYDVVSVLRIARTPSVNIGCRIENVLLQQNLTVGSQTGNDIGERDKITENPVSTGEKNAAT" data_value=34.3

Could you now consider this next binder?
Return MFI (ΔWT) (reported value) for this binder: ICOSL ECD Truncation #7 with N52H/N57Y/Q100R/C198R and E90K/E111G (Fc fusion, not shown: a dimerising Fc or GST, Made in CHO cells) DTQEKEVRAMVGSDVELSCACPEGSRFDLNDVYVYWQTSESKTVVTYHIPQHSSLEYVDSRYRNRALMSPAGMLRGDFSLRLFNVTPQDKQKFHCLVLSRSLGFQEVLSVGVTLHVAANFSVPVVSAPHSPSQDELTFTCTSINGYPRPNVYWINKTDNSLLDQALQNDTVFLNMRGLYDVVSVLRIARTPSVNIGCRIEN
22.5
